Data credit: patent US9512107B2

Biological target: IDH2 R172K (Homo sapiens, UniProt P48735, R172K)
Sequence (P48735 40-452 R172K): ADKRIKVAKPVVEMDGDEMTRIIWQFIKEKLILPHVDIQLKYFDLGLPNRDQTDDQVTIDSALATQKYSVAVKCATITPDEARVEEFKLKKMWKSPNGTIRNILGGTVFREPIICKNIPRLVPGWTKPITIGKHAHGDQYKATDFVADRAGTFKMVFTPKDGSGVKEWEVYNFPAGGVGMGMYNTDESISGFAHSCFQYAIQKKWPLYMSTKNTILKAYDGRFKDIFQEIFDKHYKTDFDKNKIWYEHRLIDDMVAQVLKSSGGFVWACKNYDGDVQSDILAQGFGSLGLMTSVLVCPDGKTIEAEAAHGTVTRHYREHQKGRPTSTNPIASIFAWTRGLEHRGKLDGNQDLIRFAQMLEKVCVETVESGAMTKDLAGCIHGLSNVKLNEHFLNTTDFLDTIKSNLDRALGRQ
Experiment: IDH2 R172K enzymatic assay (NADPH cofactor depletion, diaphorase/resazurin readout)
Conditions: read-out: Enz R172K
Procedure: Compounds are assayed for IDH2 R172K inhibitory activity through a cofactor depletion assay. […] The reaction is terminated by the addition of a second enzyme, diaphorase, and a corresponding substrate, resazurin. […]
I'd appreciate it if you could supply IC50 values for the items below.

Use these answered entries as a reference point.
CC(C)Nc1nc(Nc2ccnc(C(F)(F)F)c2)nc(-c2cccc(C(C)O)c2)n1 (stereo not shown) [Compound 663]
< 100 nM
CC(C)(C)Nc1nc(Nc2cc(F)cc(F)c2)nc(-c2cccc(N)n2)n1 [Compound 698]
< 100 nM
CC(C)Nc1nc(Nc2ccnc(C(C)(C)O)c2)nc(-c2ccccc2F)n1 [Compound 632]
100 to 1000 nM
CC(Nc1nc(Nc2ccncc2)nc(-c2ccccc2)n1)C(C)(C)C (stereo not shown) [Compound 255]
100 to 1000 nM
FC(F)(F)c1cc(Nc2nc(NC3COC3)nc(-c3ccccn3)n2)ccn1 [Compound 336]
100 to 1000 nM
CC(C)OCC(=O)Nc1nc(Nc2ccccc2)nc(-c2ccccc2)n1 [Compound 244]
100 to 1000 nM
CC(C)(CO)CNc1nc(Nc2ccccc2)nc(-c2ccccc2)n1 [Compound 239]
100 to 1000 nM
Cn1cc(Nc2nc(Nc3ccnc(C(F)(F)F)c3)nc(-c3cccc(C(F)(F)F)n3)n2)cn1 [Compound 543]
100 to 1000 nM

Kindly give each listed record's IC50.
1. CC(C)(O)CNc1nc(Nc2ccnc(C(F)(F)F)c2)nc(-c2cccc(O)c2)n1 [Compound 641]
2. CC(C)(C)CNc1nc(Nc2cncnc2)nc(-c2cccc(C(F)(F)F)n2)n1 [Compound 521]
3. CCC(=O)c1cc(Nc2nc(NC(C)C)nc(-c3cccc(C(F)(F)F)n3)n2)ccn1 [Compound 574]

["< 100 nM", "< 100 nM", "< 100 nM"]
